System: MCF-7TG cancer cell line
METHOD SUMMARY: Sulforhodamine-B cytotoxicity assay, MCF-7TG (gef-expressing)
Type: cell-based
MEASUREMENT CONDITIONS: Homo sapiens, 144 h; 6 days of treatment, gef gene induced with 1 μM Dex
# strict inequality: IC50 < 2 µM yields fulfilled, everything else yields not fulfilled

> print(dat)
                                   molecule              study.target    group.label
1  O=[N+]([O-])c1ccc(S(=O)(=O)N2CC(n3cnc4c(Cl)nc(Cl)nc43)OCc3ccccc32)cc1 (racemic) [Bozepinib]  MCF-7TG cancer cell line      fulfilled
2  O=[N+]([O-])c1ccccc1S(=O)(=O)N1CC(n2cnc3c(Cl)nc(Cl)nc32)OCc2ccccc21 (stereo not drawn) [FC-26c]  MCF-7TG cancer cell line      fulfilled
3  COC(CN(c1ccccc1CO)S(=O)(=O)c1ccc([N+](=O)[O-])cc1)n1cnc2c(Cl)nc(Cl)nc21 (stereo not drawn) [ACG-812c-F1]  MCF-7TG cancer cell line  not fulfilled
4  O=[N+]([O-])c1ccccc1S(=O)(=O)N1CC(n2cnc3nc(Cl)nc(Cl)c32)OCc2ccccc21 (stereo not drawn)  MCF-7TG cancer cell line      fulfilled
5  O=S(=O)(c1ccccc1NO)N1CC(n2cnc3c(Cl)nc(Cl)nc32)OCc2ccccc21 (stereo not drawn) [FC-29d]  MCF-7TG cancer cell line  not fulfilled
6  Nc1ccccc1S(=O)(=O)N1CC(n2cnc3c(Cl)nc(Cl)nc32)OCc2ccccc21 (stereo not drawn) [FC-29b]  MCF-7TG cancer cell line      fulfilled

Cited source: paper PMC6070671
